Target: Thymidine kinase 2, mitochondrial (Homo sapiens, UniProt O00142)
Sequence (O00142 whole entry): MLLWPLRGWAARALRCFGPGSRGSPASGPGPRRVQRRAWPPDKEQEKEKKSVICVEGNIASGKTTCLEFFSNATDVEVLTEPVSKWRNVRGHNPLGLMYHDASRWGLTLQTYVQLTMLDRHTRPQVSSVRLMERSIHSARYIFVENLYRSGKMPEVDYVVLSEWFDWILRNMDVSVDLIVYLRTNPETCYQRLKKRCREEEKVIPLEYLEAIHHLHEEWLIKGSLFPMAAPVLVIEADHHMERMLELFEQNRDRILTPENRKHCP
Experiment: Inhibition of human mitochondrial TK2 assessed as inhibition of [methyl-3H]dThd phosphorylation after 30 mins by scintillation counting
This listing pairs compounds with measured IC50.
Give just the numeric value; µM need not be written.

• O=c1ccn([C@H]2C[C@@H](O)CO2)c(=O)[nH]1 = 303

State its IC50: Cc1cn([C@H]2C[C@@H](O)CO2)c(=O)[nH]c1=O
429
